system: NCI-H23 lung; assay: NCI tumour cell line growth inhibition, 48 h
Binary call on TGI: Fulfilled from 50 µM upward, Not fulfilled beneath that.

Ask: Tell me whether TGI is at least 50 µM here: `Cn1nc2ccc3nccc(N4CCN(CCO)CC4)c3c2n1`
Reply: Fulfilled

Ask: Proceed to `CN(C)c1ccc([O][Bi]([Cl])[Cl])cc1`
Reply: Fulfilled

Ask: Proceed to `CNC(=O)c1n[nH]nc1Sc1c([N+](=O)[O-])ncn1C`
Reply: Fulfilled

Ask: Proceed to O=C1CC(O)c2c(Br)sc(Br)c21 (stereo not drawn)
Reply: Fulfilled

Ask: Proceed to `O=c1ccc2nc(-c3ccccc3)nn(-c3ccccn3)c-2c1`
Reply: Not fulfilled

Ask: Proceed to Clc1ccc2c(c1)C1C(CO2)C(c2ccccc2)=NN1c1ccccc1 (stereo not drawn)
Reply: Fulfilled

Ask: Proceed to `CC1(C)N=C(N)N=C(N)N1c1ccc(OCCCCOc2ccc(S(=O)(=O)F)cc2)c(Cl)c1`
Reply: Not fulfilled

Ask: Proceed to `C=CC[N+]12CN3CN(CN(C3)C1)C2`
Reply: Fulfilled

Ask: Proceed to CC(C)(C)c1cc(C2NCCO2)cc(C(C)(C)C)c1O (stereo not drawn)
Reply: Fulfilled

Ask: Proceed to `COc1cc(C)c2c(=O)c3ccccc3n(C)c2c1`
Reply: Fulfilled

Ask: Proceed to `N#Cc1c(O)c(N=Nc2ccccc2F)c(=O)n2c1[nH]c1ccccc12`
Reply: Fulfilled

Ask: Proceed to `CCOC(=O)N1CCc2cc(OC)c(OC)c3c2c1cc1cc(OC)c(OC)cc13`
Reply: Fulfilled

Ask: Proceed to `CCN1CCN(c2ccc(Nc3ccnc4ccc5c(nnn5C)c34)cc2)CC1`
Reply: Not fulfilled

Ask: Proceed to N#CC(C(=O)/C(=N/N)C(C#N)c1ccccc1)c1ccccc1 (stereo not drawn)
Reply: Fulfilled

Ask: Proceed to `COc1cc2c3c(n(CCCN)c(=O)c2cc1OC)-c1cc2c(cc1/C3=C\CCN)OCO2`
Reply: Not fulfilled

Ask: Proceed to `CCC/C(=N/N=C(N)N)c1ccc(NC(=O)c2cc3cc(OC)ccc3[nH]2)cc1`
Reply: Not fulfilled

Ask: Proceed to `C/C(=N/Nc1nc2ccccc2n1C)c1ccccn1`
Reply: Not fulfilled

Ask: Proceed to CC1(c2cccc3ccccc23)OC(=O)c2ccccc21 (stereo not drawn)
Reply: Not fulfilled

Ask: Proceed to `Nc1nc(N)c(C2=CCNCC2)c(=O)[nH]1`
Reply: Fulfilled

Ask: Proceed to COC(=O)C(=O)OC1(C(C)=O)CC2(c3ccccc3)OC1(c1ccccc1)c1ccccc12 (stereo not drawn)
Reply: Not fulfilled

Ask: Proceed to COc1ccc(C[C@H](N)C(=O)NC2C(CO)OC(n3cnc4c(N(C)C)ncnc43)C2O)cc1 (stereo partly drawn)
Reply: Not fulfilled

Ask: Proceed to `O=C1c2ccccc2C(=O)[C@@]23O[C@@]12C1(Oc2cccc4cccc(c24)O1)[C@@H]1O[C@@H]1[C@@H]3O`
Reply: Not fulfilled

Ask: Proceed to `O=C(CO)CC(=O)C(=O)Nc1ccccc1`
Reply: Fulfilled

====

tested on: SNB-75 CNS; assay: NCI tumour cell line growth inhibition, 48 h
Quantity: log10 of TGI (log10 of the value in µM)
# log10 transformed; quantity=TGI; unit=µM

Ask: Record request: log10 of TGI value, item `COc1cc(NC(C)=O)ccc1C(=O)N/N=C/c1ccc(Cl)cc1Cl`
Reply: 1.56

Ask: Proceed to `CSc1nc(Cl)c(Br)c(Sc2nc(N)nc3nc[nH]c23)n1`
Reply: 0.99

Ask: Proceed to `COc1ccc(/C=C/C(=O)c2ccc(SC)cc2)cc1OC`
Reply: 1.57

Ask: Proceed to `O=C1C(Cl)=C(Nc2cccc(Cl)c2)C(=O)N1Cc1ccccc1Cl`
Reply: 1.48

Ask: Proceed to COC(=O)C(=O)OC1(C(C)=O)CC2(c3ccccc3)OC1(c1ccccc1)c1ccccc12 (stereo not given)
Reply: 1.79

Ask: Proceed to `COc1ccc(C(=O)Cc2c(C(=O)c3ccccc3)c3ccccc3n2C(=O)c2ccccc2)cc1`
Reply: 2.00

Ask: Proceed to `O=C(CNc1ccc2c(c1)C(=O)c1ccccc1C2=O)Nc1ccc2c(c1)C(=O)c1ccccc1C2=O`
Reply: 0.63

Ask: Proceed to `COC(=O)Nc1nc2cc(OC)c(OC)cc2c(=O)[nH]1`
Reply: 1.64

Ask: Proceed to `C/C(=N\Nc1cc(C)c2cc(C)ccc2n1)c1ccccn1`
Reply: 0.34

Ask: Proceed to `CCc1c(C#N)c(S[C@@H](C(N)=O)c2ccccc2)nc(N(C)C)c1C#N`
Reply: 0.86

Ask: Proceed to CC1(c2cccc3ccccc23)OC(=O)c2ccccc21 (stereo not given)
Reply: 1.66

Ask: Proceed to `CCN1CCN(c2ccc(Nc3ccnc4ccc5c(nnn5C)c34)cc2)CC1`
Reply: 1.48

Ask: Proceed to O=C1CC(O)c2c(Br)sc(Br)c21 (stereo not given)
Reply: 1.47

Ask: Proceed to BrC1=CC=C2NC=CC3=CC=NC1C32 (stereo not given)
Reply: 2.00

Ask: Proceed to `NC(N)=N/N=C\c1cccc(OCc2ccccc2)c1`
Reply: 1.37

Ask: Proceed to `Fc1ccc2c(c1)c(-c1nc(-c3c[nH]c4ncccc34)cs1)cn2CCCN1CCCCC1`
Reply: 0.47

Ask: Proceed to `COC(=O)c1c2c(c(C)[n+]([O-])c1C)C(=O)C=C(NCc1ccc(F)c(Cl)c1)C2=O`
Reply: 0.49

Ask: Proceed to `Cc1ccc(NC(=O)CSc2nc(C)nc3c2sc(=S)n3-c2ccccc2)cc1`
Reply: 0.68

Ask: Proceed to `Clc1cc(Cc2cc(Cl)c(Cl)c3c2OCOC3)c2c(c1Cl)COCO2`
Reply: 1.72

Ask: Proceed to `O=C1/C(=C/c2ccccc2)CN(C(=O)c2cccnc2)C/C1=C\c1ccccc1`
Reply: 1.43

Ask: Proceed to `CCn1c(CN2CCN(Cc3ccccc3)CC2)nc2cc(NC(=O)c3cccs3)ccc21`
Reply: 1.49

Ask: Proceed to CC(C)(C)c1cc(C2NCCO2)cc(C(C)(C)C)c1O (stereo not given)
Reply: 1.49

Ask: Proceed to `CCOc1ccc(-c2nonc2NC(=O)c2cccc(C)c2)cc1OCC`
Reply: 1.72

Ask: Proceed to `Nc1nc(N)c2c(n1)NC(=O)c1c(c3ccccc3n1Cc1ccc(Cl)cc1)C2`
Reply: 1.84

Ask: Proceed to C=CC(c1ccccc1)[C@@]1(OC(C)=O)C(=O)C(=O)OC1C1COC(C)(C)O1 (stereo not given in full)
Reply: 1.56

Ask: Proceed to `O=c1c2ccccc2n(C[C@H]2CO2)c2ccccc12`
Reply: 0.54

====

tested on: HCT-15 colon; assay: NCI tumour cell line growth inhibition, 48 h; in the data active = GI50 below about 0.43 µM; inactive = the rest
// allowed return values: active, inactive

Ask: Outcome logged for `COc1ccc(/C=C\c2cc(OC)c(OC)c(OC)c2)cc1OC(=O)c1cccc(Cn2cc(CCOC(=O)[C@H](N)Cc3cn(C)c4ccccc34)nn2)c1` in this assay:
Reply: active

Ask: Proceed to `O=C1/C(=C/c2ccccc2)CN(C(=O)c2cccnc2)C/C1=C\c1ccccc1`
Reply: active

Ask: Proceed to CC1=C2C[C@H]3[C@@H](CC[C@@H]4CC(NS(C)(=O)=O)CC[C@@]43C)[C@@H]2CC[C@@]2(C1)O[C@@H]1C[C@H](C)CN[C@H]1[C@H]2C (some centres undefined)
Reply: inactive

Ask: Proceed to `c1ccc2[nH]c(-c3ccc(NN=Nc4ccncc4)cc3)nc2c1`
Reply: inactive

====

system: 786-0 renal; test: NCI tumour cell line growth inhibition, 48 h
Provide the reported TGI of each item.
Write the value in µM as a bare number.

Ask: Record request: TGI value, item `O=c1c2ccccc2n(C[C@H]2CO2)c2ccccc12`
Reply: 8.17

Ask: Proceed to `CCCc1cc2c(=O)c(C(=O)OC)c[nH]c2cc1N(CC)CC`
Reply: 39.8

Ask: Proceed to `C=CC(=O)N1CCN(c2nc(=O)n(-c3c(C)ccnc3C(C)C)c3nc(-c4c(O)cccc4F)c(F)cc23)[C@@H](C)C1`
Reply: 36.3

Ask: Proceed to CCOc1ccccc1NC(=O)CC1SC(=Nc2ccc([N+](=O)[O-])cc2)NC1=O (stereo not given)
Reply: 33.5

====

test system: NCI-H460 lung; assay: NCI tumour cell line growth inhibition, 48 h
Quantity: TGI

Ask: Record request: TGI value, item `Nc1c2c(=O)[nH]c(=O)c2c(N)c2c(=O)c3ccccc3c(=O)c12`
Reply: 2.52 µM

Ask: Proceed to CC1(c2cccc3ccccc23)OC(=O)c2ccccc21 (stereo not given)
Reply: 52.8 µM

Ask: Proceed to `COC(=O)/C([Se]c1c(C)cc(C)cc1C)=C(\[Se]c1c(C)cc(C)cc1C)C(=O)OC`
Reply: > 100 µM

Ask: Proceed to `COc1cc(C)c2c(=O)c3ccccc3n(C)c2c1`
Reply: > 100 µM

Ask: Proceed to `c1ccc2[nH]c(-c3ccc(NN=Nc4ccncc4)cc3)nc2c1`
Reply: > 100 µM

Ask: Proceed to COC(=O)c1ccccc1C1CN=NC12Cc1ccc(C)c(C)c1C2=O (stereo not given)
Reply: > 100 µM

Ask: Proceed to `Oc1cc(O)c2c(-c3c(O)c(-c4ccc(O)c(O)c4)[o+]c4cc(O)cc(O)c34)c(O)c(-c3ccc(O)c(O)c3)[o+]c2c1`
Reply: 90.6 µM

Ask: Proceed to `C/C(=N/Nc1nc2ccccc2n1C)c1ccccn1`
Reply: 1.95 µM

Ask: Proceed to `N=C(N)N1CCC(N2CCOCC2)CC1`
Reply: > 100 µM

Ask: Proceed to CCOc1ccccc1NC(=O)CC1SC(=Nc2ccc([N+](=O)[O-])cc2)NC1=O (stereo not given)
Reply: 51.1 µM

Ask: Proceed to `C=CC[N+]12CN3CN(CN(C3)C1)C2`
Reply: 54.7 µM

Ask: Proceed to CC(C)(C)N1C(C(=O)c2ccccc2)C1c1ccccc1 (stereo not given)
Reply: > 100 µM

Ask: Proceed to CC(C)c1ccc(C2C3=C(N=C4SCC(=O)N42)C(=O)c2ccccc23)cc1 (stereo not given)
Reply: > 100 µM

Ask: Proceed to `CCN1CCN(c2ccc(Nc3ccnc4ccc5c(nnn5C)c34)cc2)CC1`
Reply: 11.9 µM

Ask: Proceed to COC(=O)c1ccccc1CC1Cc2ccc3c(c2C1)CCC3 (stereo not given)
Reply: > 100 µM

Ask: Proceed to `CC(=O)[CH-]C(=O)c1ccccc1.CC(=O)[CH-]C(=O)c1ccccc1.[Eu+3].[OH-].[OH3+]`
Reply: > 100 µM

Ask: Proceed to `CCN=C(NNc1ccc([N+](=O)[O-])cc1)P(=O)(OC(C)C)OC(C)C`
Reply: > 100 µM

Ask: Proceed to O=C(CC(C(=O)c1cccs1)c1ccsc1)c1cccs1 (stereo not given)
Reply: > 100 µM

Ask: Proceed to `CC(C)(C)c1cc(-c2cc(C(C)(C)C)n(-c3ccccc3)n2)nn1-c1ccccc1`
Reply: > 100 µM

Ask: Proceed to `CC(=O)O[C@H]1C(=O)[C@@]2(C)[C@H]([C@H](OC(=O)c3cccc(C(F)(F)F)c3)[C@]3(O)C[C@H](OC(=O)[C@H](O)[C@@H](NC(=O)c4ccccc4)c4ccccc4)C(C)=C1C3(C)C)[C@]1(OC(C)=O)CO[C@@H]1C[C@@H]2O`
Reply: > 10.6 µM
